Experiment: In vivo rat pharmacokinetics experiments
Details: non-compartmental analysis
Protocol: Example 99: Protocol for Testing PAR2 Compounds In Vivo Rat Pharmacokinetics Experiments […] Rats were bled by venipuncture (jugular vein) and the samples were collected into tubes containing K3EDTA. […] Pharmacokinetic parameters were calculated using non-compartmental analysis.
Can you tell me T ½ for the items I'm about to list?
Answers are plain numbers, in min.

CC1(C)CCC(c2cc(C(C)(C)C)c3oc(C(=O)N4CCN(c5cccc(-c6nnn[nH]6)n5)CC4(C)C)cc3n2)CC1	108
CC1(C)CCC(c2cc(C(C)(C)C)c3oc(C(=O)N4CCN(C(=O)[C@H]5CC[C@@](C)(C(=O)O)CC5)CC4(C)C)cc3n2)CC1	60
CC1(C)CCC(c2cc(C(C)(C)C)c3oc(C(=O)N4CCN(c5ncc(-c6nnn[nH]6)cn5)CC4(C)C)cc3n2)CC1	26.4
CC(C)(C)c1cc(-c2ccc(Cl)c(F)c2)nc2cc(C(=O)N3CCN(c4cccc(-c5nnn[nH]5)n4)CC3(C)C)oc12	59.4

## Task Identify measured T ½ associated with CC1(C)CCC(c2cc(C(C)(C)C)c3oc(C(=O)N4CCN(C(=O)CC5(C(=O)O)CCC5)CC4(C)C)cc3n2)CC1
## Result 30

Values were extracted from patent US20180057505A1.
